Reference source for all entries: paper PMC7076440

experiment: log D / log P, octanol/water; type: physicochemical; settings: run 3, from log D and pKa
reported_property: logP at 24 h
Output: the number by itself.

Form field: reported logP at 24 h of CN1CCN(Cc2ccc(-c3cnc(N4CCOC(Cn5nnc6ncc(-c7cnn(C)c7)nc65)C4)nc3)cc2)CC1 (stereo not shown) 2.5

====

assay: log D / log P, octanol/water; type: physicochemical; conditions: run 5, pH 6.53
reported_property: logD
Just the number, please, no unit after it.

Please look up its logD: CN1CCN(Cc2ccc(-c3cnc(N4CCOC(Cn5nnc6ncc(-c7cnn(C)c7)nc65)C4)nc3)cc2)CC1 (stereo not shown) 1.45

====

assay: Equilibrium solubility at different pHs and excipients by HPLC; format: physicochemical; conditions: 40% PEG 400 in 0.1 M acetate buffer, aqueous with cosolvent or surfactant or cyclodextrin, thermodynamic from solid; PEG 400 (40 %), co-solvent in 0.1 M acetate buffer pH 4.0
reported_property: solubility at 24 h (µg/mL)
Number in µg/mL, nothing else.

So what's the measured solubility at 24 h for this one? CN1CCN(Cc2ccc(-c3cnc(N4CCOC(Cn5nnc6ncc(-c7cnn(C)c7)nc65)C4)nc3)cc2)CC1 (stereo not shown) 8800

====

assay: Pharmacokinetic study in beagle dogs; type: in vivo; conditions: male, beagle, dog, plasma, po, 5 mg/kg, capsule with MCC, beagle dogs, mean ± SD
reported_property: AUC(0-inf) (ng·h/mL)
Quick reminder: number only, in ng·h/mL, skip the unit.

Would you kindly share the measured AUC(0-inf) for CN1CCN(Cc2ccc(-c3cnc(N4CCOC(Cn5nnc6ncc(-c7cnn(C)c7)nc65)C4)nc3)cc2)CC1 (stereo not shown) ? 456

====

experiment: log D / log P, octanol/water; assay type: physicochemical; details: run 2, pH 6.59
reported_property: logD

Fill in: logD of CN1CCN(Cc2ccc(-c3cnc(N4CCOC(Cn5nnc6ncc(-c7cnn(C)c7)nc65)C4)nc3)cc2)CC1 (stereo not shown) [ABN401] is ___ 1.48

====

assay: Equilibrium solubility at different pHs and excipients by HPLC; format: physicochemical; settings: 60% PEG 400 in 0.1 M acetate buffer, aqueous with cosolvent or surfactant or cyclodextrin, thermodynamic from solid; PEG 400 (60 %), co-solvent in 0.1 M acetate buffer pH 4.0
reported_property: solubility at 24 h

Entry CN1CCN(Cc2ccc(-c3cnc(N4CCOC(Cn5nnc6ncc(-c7cnn(C)c7)nc65)C4)nc3)cc2)CC1 (stereo not shown) has what solubility at 24 h? 9480 µg/mL

====

Experiment: Equilibrium solubility at different pHs and excipients by HPLC
Assay type: physicochemical
Conditions: aqueous buffer, thermodynamic from solid; 0.1 M citrate buffer (pH 5.0)
Method: Solutions at pH values of 1 to 12 were prepared using HCl and NaOH. At first, 10^−1 N, 10^−2 N, 10^−3 N, 10^−4 N, 10^−5 N, and 10^−6 N of HCl and NaOH solutions were prepared and their pH values were measured with a pH meter (Metrohm 827 pH lab, Zurich, Switzerland). […] The pH solubility of ABN401 was analyzed by HPLC and the pKa was determined by plotting a graph of log(solubility) against pH. […]
reported_property: solubility at 24 h (µg/mL)
Kindly provide the numeric value in µg/mL only, without the unit symbol.

Bench note: what solubility at 24 h did CN1CCN(Cc2ccc(-c3cnc(N4CCOC(Cn5nnc6ncc(-c7cnn(C)c7)nc65)C4)nc3)cc2)CC1 (stereo not shown) show? 20
